Measured IC50 accompanies every entry in the list below.
Test system: HepG2
experimental-details: Cytotoxicity against human HepG2 cells assessed as cell viability after 48 hrs by MTT assay
Format: cell-based
assay-setup: HepG2, 48 h
value-kind: IC50 (nM)

- compound: "CC(=O)O[C@@H]1CC[C@@]2(C)[C@@H](C1)C[C@@H](OC(C)=O)[C@@H]1[C@@H]2C[C@H](OC(C)=O)[C@]2(C)[C@@H]([C@H](C)CCCNCCCNc3ccnc4cc(Cl)ccc34)CC[C@@H]12"
  value-kind: "IC50"
  value-observed: 980
- compound: "CC(=O)O[C@H]1C[C@H]2[C@@H]([C@H](OC(C)=O)C[C@@H]3CC(NCCCNc4ccnc5cc(Cl)ccc45)CC[C@@]32C)[C@@H]2CC[C@H]([C@H](C)CCCNCCCNc3ccnc4cc(Cl)ccc34)[C@@]12C (mixture of isomers)"
  value-kind: "IC50"
  value-observed: 4680

* * *

subject-of-test: Botulinum neurotoxin type A (Clostridium botulinum)
experimental-details: Inhibition of Clostridium botulinum recombinant BoNT/A light chain using N-terminal acetylated, C-terminal aminated SNAP-25 (187-203) as substrate at 20 uM by reverse-phase HPLC analysis
Entries and their measured inhibition follow.
value-kind: inhibition (%)

- line-notation: "CC(=O)O[C@H]1C[C@H]2[C@@H]([C@H](OC(C)=O)C[C@@H]3C[C@H](NC(=O)OC(C)(C)C)CC[C@@]32C)[C@@H]2CC[C@H]([C@H](C)CCCN(C)CCCNc3ccnc4cc(Cl)ccc34)[C@@]12C"
  unit-abbrev: "%"
  value-observed: 59.6
- line-notation: "CC(=O)O[C@H]1C[C@H]2[C@@H]([C@H](OC(C)=O)C[C@@H]3C[C@H](O)CC[C@@]32C)[C@@H]2CC[C@H]([C@H](C)CCCNCCCNc3ccnc4cc(Cl)ccc34)[C@@]12C"
  unit-abbrev: "%"
  value-observed: 69.9
- line-notation: "CC(=O)N[C@@H]1CC[C@@]2(C)[C@@H](C1)C[C@@H](OC(C)=O)[C@@H]1[C@@H]2C[C@H](OC(C)=O)[C@]2(C)[C@@H]([C@H](C)CCCNCCNc3ccnc4cc(Cl)ccc34)CC[C@@H]12"
  unit-abbrev: "%"
  value-observed: 74

* * *

experimental-details: Half life in human liver microsomes
Assay type: ADME
assay-setup: liver microsomes
value-kind: half-life (h)

- line-notation: "CC(=O)O[C@H]1C[C@H]2[C@@H]([C@H](OC(C)=O)C[C@@H]3C[C@H](N)CC[C@@]32C)[C@@H]2CC[C@H]([C@H](C)CCCN(C)CCNc3ccnc4cc(Cl)ccc34)[C@@]12C"
  value-kind: "half-life"
  value-observed: 1
- line-notation: "CC(=O)O[C@H]1C[C@H]2[C@@H]([C@H](OC(C)=O)C[C@@H]3C[C@H](N(C)C)CC[C@@]32C)[C@@H]2CC[C@H]([C@H](C)CCCNCCNc3ccnc4cc(Cl)ccc34)[C@@]12C"
  value-kind: "half-life"
  value-observed: 1
- line-notation: "CC(=O)O[C@H]1C[C@H]2[C@@H]([C@H](OC(C)=O)C[C@@H]3C[C@H](N(C)C)CC[C@@]32C)[C@@H]2CC[C@H]([C@H](C)CCCN(C)CCCNc3ccnc4cc(Cl)ccc34)[C@@]12C"
  value-kind: "half-life"
  value-observed: 1

* * *

experimental-details: Selectivity index, ratio of IC50 for human HepG2 cells to IC50 for CQ, MFQ-resistant Plasmodium falciparum TM91C235 clone Southeast asian isolate
Assay type: toxicity, cell-based
assay-setup: read-out: Ratio IC50

- compound: "CC(=O)O[C@H]1C[C@H]2[C@@H]([C@H](OC(C)=O)C[C@@H]3CC(=O)CC[C@@]32C)[C@@H]2CC[C@H]([C@H](C)CCCNCCCCCCNc3ccnc4cc(Cl)ccc34)[C@@]12C"
  selectivity ratio: 25
- compound: "CC(=O)O[C@H]1C[C@H]2[C@@H]([C@H](OC(C)=O)C[C@@H]3CC(=O)CC[C@@]32C)[C@@H]2CC[C@H]([C@H](C)CCCNCCCNc3ccnc4cc(Cl)ccc34)[C@@]12C"
  selectivity ratio: 121
- compound: "CC(=O)O[C@H]1C[C@H]2[C@@H]([C@H](OC(C)=O)C[C@@H]3C[C@H](NC(=O)OC(C)(C)C)CC[C@@]32C)[C@@H]2CC[C@H]([C@H](C)CCCNCCNc3ccnc4cc(Cl)ccc34)[C@@]12C"
  selectivity ratio: 464
- compound: "CC(=O)O[C@@H]1CC[C@@]2(C)[C@@H](C1)C[C@@H](OC(C)=O)[C@@H]1[C@@H]2C[C@H](OC(C)=O)[C@]2(C)[C@@H]([C@H](C)CCCN(C)CCCNc3ccnc4cc(Cl)ccc34)CC[C@@H]12"
  selectivity ratio: 71
- compound: "CC(=O)O[C@H]1C[C@H]2[C@@H]([C@H](OC(C)=O)C[C@@H]3C[C@H](NC(=O)OC(C)(C)C)CC[C@@]32C)[C@@H]2CC[C@H]([C@H](C)CCCN(C)CCNc3ccnc4cc(Cl)ccc34)[C@@]12C"
  selectivity ratio: 144
- compound: "CC(=O)O[C@H]1C[C@H]2[C@@H]([C@H](OC(C)=O)C[C@@H]3C[C@H](N)CC[C@@]32C)[C@@H]2CC[C@H]([C@H](C)CCCN(C)CCNc3ccnc4cc(Cl)ccc34)[C@@]12C"
  selectivity ratio: 2330
- compound: "CC(=O)O[C@H]1C[C@H]2[C@@H]([C@H](OC(C)=O)C[C@@H]3CC(NCCCNc4ccnc5cc(Cl)ccc45)CC[C@@]32C)[C@@H]2CC[C@H]([C@H](C)CCCNCCCNc3ccnc4cc(Cl)ccc34)[C@@]12C (mixture of isomers)"
  selectivity ratio: 24
- compound: "CC(=O)O[C@H]1C[C@H]2[C@@H]([C@H](OC(C)=O)C[C@@H]3C[C@H](N)CC[C@@]32C)[C@@H]2CC[C@H]([C@H](C)CCCN(CCCNc3ccnc4cc(Cl)ccc34)CCC[C@@H](C)[C@H]3CC[C@H]4[C@@H]5[C@H](OC(C)=O)C[C@@H]6C[C@H](N)CC[C@]6(C)[C@H]5C[C@H](OC(C)=O)[C@]34C)[C@@]12C"
  selectivity ratio: 7

* * *

System: Plasmodium falciparum
experimental-details: Antimalarial activity against CQ, MFQ-resistant Plasmodium falciparum TM91C235 clone Southeast asian isolate assessed as inhibition of parasite proliferation by MSF assay
Assay type: functional, organism-based
# IC50 per record follows
value-kind: IC50 (nM)

- line-notation: "CC(=O)O[C@@H]1CC[C@@]2(C)[C@@H](C1)C[C@@H](OC(C)=O)[C@@H]1[C@@H]2C[C@H](OC(C)=O)[C@]2(C)[C@@H]([C@H](C)CCCN(C)CCNc3ccnc4cc(Cl)ccc34)CC[C@@H]12"
  value-observed: 23
- line-notation: "CC(=O)O[C@@H]1CC[C@@]2(C)[C@@H](C1)C[C@@H](OC(C)=O)[C@@H]1[C@@H]2C[C@H](OC(C)=O)[C@]2(C)[C@@H]([C@H](C)CCCNCCCCNc3ccnc4cc(Cl)ccc34)CC[C@@H]12"
  value-observed: 54.5

* * *

experimental-details: Selectivity index, ratio of IC50 for human HepG2 cells to IC50 for CQ, MFQ-susceptible Plasmodium falciparum D6 clone Sierra 1/UNC isolate
Assay type: toxicity, cell-based
assay-setup: read-out: Ratio IC50
selectivity ratio under 100 gets Yes, anything at or over 100 gets No.

- molecule: "CC(=O)O[C@H]1C[C@H]2[C@@H]([C@H](OC(C)=O)C[C@@H]3C[C@H](NC(=O)OC(C)(C)C)CC[C@@]32C)[C@@H]2CC[C@H]([C@H](C)CCCN(CCCNc3ccnc4cc(Cl)ccc34)CCC[C@@H](C)[C@H]3CC[C@H]4[C@@H]5[C@H](OC(C)=O)C[C@@H]6C[C@H](NC(=O)OC(C)(C)C)CC[C@]6(C)[C@H]5C[C@H](OC(C)=O)[C@]34C)[C@@]12C"
  label-class: "Yes"
- molecule: "CC(=O)O[C@H]1C[C@H]2[C@@H]([C@H](OC(C)=O)C[C@@H]3C[C@H](N(C)C)CC[C@@]32C)[C@@H]2CC[C@H]([C@H](C)CCCN(C)CCNc3ccnc4cc(Cl)ccc34)[C@@]12C"
  label-class: "No"
- molecule: "CC(=O)O[C@H]1C[C@H]2[C@@H]([C@H](OC(C)=O)C[C@@H]3CC(NCCCNc4ccnc5cc(Cl)ccc45)CC[C@@]32C)[C@@H]2CC[C@H]([C@H](C)CCCNCCCNc3ccnc4cc(Cl)ccc34)[C@@]12C (mixture of isomers)"
  label-class: "Yes"
- molecule: "CC(=O)O[C@H]1C[C@H]2[C@@H]([C@H](OC(C)=O)C[C@@H]3C[C@H](O)CC[C@@]32C)[C@@H]2CC[C@H]([C@H](C)CCCNCCCCCCNc3ccnc4cc(Cl)ccc34)[C@@]12C"
  label-class: "Yes"
- molecule: "CC(=O)N[C@@H]1CC[C@@]2(C)[C@@H](C1)C[C@@H](OC(C)=O)[C@@H]1[C@@H]2C[C@H](OC(C)=O)[C@]2(C)[C@@H]([C@H](C)CCCNCCCNc3ccnc4cc(Cl)ccc34)CC[C@@H]12"
  label-class: "No"
- molecule: "CC(=O)O[C@H]1C[C@H]2[C@@H]([C@H](OC(C)=O)C[C@@H]3C[C@H](N(C)C)CC[C@@]32C)[C@@H]2CC[C@H]([C@H](C)CCCNCCNc3ccnc4cc(Cl)ccc34)[C@@]12C"
  label-class: "No"
- molecule: "CC(=O)O[C@H]1C[C@H]2[C@@H]([C@H](OC(C)=O)C[C@@H]3C[C@H](N)CC[C@@]32C)[C@@H]2CC[C@H]([C@H](C)CCCN(C)CCCNc3ccnc4cc(Cl)ccc34)[C@@]12C"
  label-class: "Yes"
- molecule: "CC(=O)O[C@H]1C[C@H]2[C@@H]([C@H](OC(C)=O)C[C@@H]3C[C@H](NS(C)(=O)=O)CC[C@@]32C)[C@@H]2CC[C@H]([C@H](C)CCCN(C)CCNc3ccnc4cc(Cl)ccc34)[C@@]12C"
  label-class: "No"
